- testSystem: Recombinant Human MMP-13 (Homo sapiens)
- Construct: purchased R&D systems 511-MM
- assayText: MMP-13 inhibitory activity (MMP-13 specific fluorescent substrate with quencher)
- Type: biochemical
- setupConditions: Experimental Example 3; read-out: IC50 MMP13
Listed compounds paired with reported IC50

> print(dat)
                                   compound                               testsystem    result
1  NC(=O)OCCC1(c2ccccc2)CC1(NS(=O)(=O)c1ccc(-c2ccc(Cl)cc2)s1)C(=O)O (stereo not shown)  Recombinant Human MMP-13 (Homo sapiens)  < 0.1 µM

Looking up CC1[C@H](c2ccccc2)[C@]1(NS(=O)(=O)c1ccc(-c2cc(C(F)(F)F)on2)s1)C(N)=O (stereo partly shown) , I see its IC50 listed as ≥ 1 µM

Looking up CC1[C@H](c2ccccc2)[C@]1(NS(=O)(=O)N1Cc2ccc(Br)cc2C1)C(=O)O (stereo partly shown) , I see its IC50 listed as < 1 µM

Looking up CC1[C@H](c2ccccc2)[C@]1(NS(=O)(=O)c1ccc(-c2ccc3c(c2)OCO3)s1)C(=O)O (stereo partly shown) , I see its IC50 listed as < 0.1 µM

Looking up CN(C)CCSCC1(c2ccccc2)CC1(NS(=O)(=O)c1ccc(-c2ccc(Cl)cc2)s1)C(=O)O (stereo not shown) , I see its IC50 listed as < 1 µM

Looking up CC1(c2cccc(F)c2)CC1(NS(=O)(=O)c1ccc(-c2cc(C(F)(F)F)on2)s1)C(=O)O (stereo not shown) , I see its IC50 listed as ≥ 1 µM

Looking up CC1[C@H](c2ccccc2)[C@]1(NS(=O)(=O)c1ccc2nc(-c3ccccc3)[nH]c2c1)C(=O)O (stereo partly shown) , I see its IC50 listed as < 1 µM

====

- testSystem: MMP-1 (Homo sapiens)
- Sequence (P03956 100-469): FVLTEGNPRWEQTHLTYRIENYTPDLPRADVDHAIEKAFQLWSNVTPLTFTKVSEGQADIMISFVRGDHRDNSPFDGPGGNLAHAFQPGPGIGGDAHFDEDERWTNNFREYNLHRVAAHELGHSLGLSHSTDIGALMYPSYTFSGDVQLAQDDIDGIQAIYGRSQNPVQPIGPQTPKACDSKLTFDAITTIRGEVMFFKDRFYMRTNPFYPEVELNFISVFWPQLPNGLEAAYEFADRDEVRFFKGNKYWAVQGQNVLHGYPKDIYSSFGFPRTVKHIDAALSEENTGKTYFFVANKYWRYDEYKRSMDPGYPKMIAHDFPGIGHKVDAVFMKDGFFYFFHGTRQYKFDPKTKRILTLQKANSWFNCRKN
- assayText: MMP-1 inhibitory action (Type I collagen Activity Measurement kit, FITC-labeled collagen type I)
- Type: biochemical
- setupConditions: MMP-1 inhibitory action, FITC-labeled collagen type I, 37° C. for 3 hr; read-out: IC50 MMP1 (Experimental Example 2)
pIC50: −log10 of the molar value.
recordedEndpoint: pIC50

> print(dat)
                                   compound  result
1  O=C(O)C1(NS(=O)(=O)c2ccc(-c3ccc(Cl)cc3)s2)CC1C1CCC1 (centres unmarked) [Example 2-58]  ≤ 5.00
2  O=C(O)C1(NS(=O)(=O)N2CCN(c3ccc(C(F)(F)F)cn3)CC2)CC1c1ccccc1 (centres unmarked) [Example 2-68]  ≤ 5.00
3  O=C(O)C1(NS(=O)(=O)c2ccc(-c3ccc(Cl)cc3)s2)CC1(CCCO)c1ccccc1 (centres unmarked) [Example 2-227]  ≤ 6.00
4  O=C(O)C1(NS(=O)(=O)c2ccc(-c3ccc(F)cc3)s2)CC1c1ccccc1 (centres unmarked) [Example 2-21]  ≤ 6.00
5  O=C(NCC(F)(F)F)c1ccc(S(=O)(=O)NC2(C(=O)O)CC2c2ccccc2)s1 (centres unmarked) [Example 2-106]  ≤ 5.00

Looking up O=C(O)C1(NS(=O)(=O)c2ccc(-c3ccc(C(F)(F)F)cc3)s2)CC1c1ccccc1 (centres unmarked) [Example 2-19] , I see its pIC50 listed as ≤ 5.00

Looking up CC1C(c2ccccc2)C1(NS(=O)(=O)c1ccc(-c2ccc(Cl)cc2)s1)C(=O)O (centres unmarked) [Example 2-237] , I see its pIC50 listed as ≤ 6.00

Looking up CN1CCN(C(=O)c2cccc(C3CC3(NS(=O)(=O)c3ccc(-c4ccc(Cl)cc4)s3)C(=O)O)c2)CC1 (centres unmarked) [Example 2-200] , I see its pIC50 listed as ≤ 5.00

====

Listed compounds paired with reported pIC50
- testSystem: Recombinant Human MMP-13 (Homo sapiens, UniProt P45452)
- Construct: purchased R&D systems 511-MM
- assayText: MMP-13 inhibitory activity (MMP-13 specific fluorescent substrate with quencher)
- Assay type: biochemical
- setupConditions: Recombinant Human MMP-13, fluorescent substrate, 25° C. for 1 h; read-out: IC50 MMP13 (Experimental Example 3)
pIC50: −log10 of the molar value. Structures can show the parent of a compound that is named as a salt.

Worked examples, 5 compounds total:
> print(dat)
                                   compound  result
1  O=C(O)[C@]1(NS(=O)(=O)c2ccc(C3=CCNCC3)s2)C[C@@H]1c1ccccc1 [Example 2-2, hydrochloride]  ≤ 5.00
2  C[C@]1(c2ccccc2)C[C@@]1(NS(=O)(=O)c1ccc(-c2ccc(Cl)c(N)c2)s1)C(=O)O  > 7.00
3  CN(Cc1cccnc1)c1cccc(C2CC2(NS(=O)(=O)c2ccc(-c3cc(C(F)(F)F)on3)s2)C(=O)O)c1 (stereo not drawn)  > 7.00
4  O=C(O)[C@]1(NS(=O)(=O)c2ccc(-c3nsc(CF)n3)s2)C[C@@H]1c1ccccc1  > 6.00
5  O=C(CCc1cccc(C2CC2(NS(=O)(=O)c2ccc(-c3ccc(Cl)cc3)s2)C(=O)O)c1)N1CCC(O)CC1 (stereo not drawn)  > 7.00

Looking up CN1CCN(CCOc2cccc(C3CC3(NS(=O)(=O)c3ccc(-c4ccc(Cl)cc4)s3)C(=O)O)c2)CC1 (stereo not drawn) , I see its pIC50 listed as > 6.00

Looking up O=C(O)C1(NS(=O)(=O)c2ccc(-c3ccc(F)cc3)s2)CC1c1ccccc1 (stereo not drawn) , I see its pIC50 listed as > 6.00

Looking up O=C(c1cccc(Cl)c1)N1CCN(S(=O)(=O)NC2(C(=O)O)CC2c2ccccc2)CC1 (stereo not drawn) , I see its pIC50 listed as ≤ 5.00

Looking up CN(C)c1cccc([C@H]2C[C@@]2(NS(=O)(=O)c2ccc(-c3ccc(Cl)cc3)s2)C(=O)O)c1 , I see its pIC50 listed as > 7.00

Looking up O=C(O)C1(NS(=O)(=O)c2ccc(-c3ccc(Cl)cn3)s2)CC1c1cccc(Cn2cccn2)c1 (stereo not drawn) , I see its pIC50 listed as > 7.00

Looking up CN1CCN(C(=O)CCc2cccc(C3CC3(NS(=O)(=O)c3ccc(-c4ccc(Cl)cc4)s3)C(=O)O)c2)CC1 (stereo not drawn) , I see its pIC50 listed as > 7.00

Looking up O=C(O)c1ccc(S(=O)(=O)NC2(C(=O)O)CC2c2ccccc2)s1 (stereo not drawn) , I see its pIC50 listed as ≤ 5.00

====

- testSystem: aggrecanase-1 (Homo sapiens, UniProt O75173)
- Sequence (O75173 213-837, species assumed): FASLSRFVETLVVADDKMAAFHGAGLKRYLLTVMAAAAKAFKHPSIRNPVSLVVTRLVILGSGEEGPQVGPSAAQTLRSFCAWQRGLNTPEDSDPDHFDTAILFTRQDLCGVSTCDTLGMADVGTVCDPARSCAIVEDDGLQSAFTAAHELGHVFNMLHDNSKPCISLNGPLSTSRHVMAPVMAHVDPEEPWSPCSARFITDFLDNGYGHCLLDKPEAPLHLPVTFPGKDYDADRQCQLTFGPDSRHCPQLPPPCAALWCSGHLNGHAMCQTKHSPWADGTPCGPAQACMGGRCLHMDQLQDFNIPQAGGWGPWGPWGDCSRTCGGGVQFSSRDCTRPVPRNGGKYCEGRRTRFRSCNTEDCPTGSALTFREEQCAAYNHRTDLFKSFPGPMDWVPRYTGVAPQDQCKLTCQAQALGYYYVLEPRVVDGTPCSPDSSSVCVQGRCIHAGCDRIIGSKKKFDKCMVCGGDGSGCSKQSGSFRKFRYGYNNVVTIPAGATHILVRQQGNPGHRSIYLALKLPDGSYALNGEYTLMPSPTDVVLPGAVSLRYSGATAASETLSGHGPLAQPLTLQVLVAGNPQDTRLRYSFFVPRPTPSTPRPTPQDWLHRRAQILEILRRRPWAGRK
- assayText: Aggrecanase-1 inhibitory action (Particle Assay, GAG release from aggrecan-containing polyacrylamide particles)
- Format: biochemical
- setupConditions: aggrecanase-1 inhibitory action; read-out: IC50 AG1 (Experimental Example 1)
pIC50: −log10 of the molar value.
Listed molecules paired with reported pIC50

Worked examples, 5 molecules total:
> print(dat)
                                   molecule  recordedendpoint  result
1  O=C(O)C1(NS(=O)(=O)c2ccc(-c3ccc(Cl)cc3)s2)CC1c1ccccc1Oc1cccnc1 (stereo not shown) [Example 2-24]             pIC50  > 6.00
2  CNC(=O)COc1cccc(C2CC2(NS(=O)(=O)c2ccc(-c3ccc(Cl)cc3)cc2)C(=O)O)c1 (stereo not shown) [Example 1-118]             pIC50  > 7.00
3  Cc1cnc(-c2ccc(S(=O)(=O)N[C@@]3(C(=O)O)C[C@@H]3c3ccccc3)s2)s1 [Example 2-26]             pIC50  > 6.00
4  O=C(O)[C@]1(NS(=O)(=O)c2ccc(-c3ccc(Cl)cc3)s2)C[C@@H]1c1cccc(CO)c1 [Example 2-182]             pIC50  > 7.00
5  COCCN(C)C(=O)c1cccc(C2CC2(NS(=O)(=O)c2ccc(-c3ccc(Cl)cc3)s2)C(=O)O)c1 (stereo not shown) [Example 2-69]             pIC50  > 7.00

Looking up O=C(Nc1ccccc1)c1ccc(S(=O)(=O)NC2(C(=O)O)CC2c2ccccc2)s1 (stereo not shown) [Example 2-96] , I see its pIC50 listed as ≤ 5.00

Looking up O=C(c1ccc(Cl)cc1)N1CCN(S(=O)(=O)NC2(C(=O)O)CC2c2ccccc2)CC1 (stereo not shown) [Example 2-159] , I see its pIC50 listed as ≤ 5.00
